Measured values drawn from PubChem BioAssay (NCATS) for this set.

# assay: Quantitative High-Throughput drug screen in 47 multiple myeloma cell lines against the NCATS MIPE library collection: Karpas25_ECACC cell viability assay (AID 1918968; further: nearly all actives have a fitted effect of over 35% in size)
# assay_conditions: Karpas25 myeloma viability, CellTiter-Glo ATP, 48 h; series mostly up to 45.8 µM
Results filed as inconclusive are left out. Calls of active or inactive are those of the source. The call rests on the fitted dose curve; in most records, active means well fitted cell-killing curve with a large enough effect; inconclusive means small, poorly fitted or top-dose-only effect, or effect the other way; inactive means no such curve, though single readings can be large or run the other way.
Would you mind answering with one of these outcomes? active, inactive

Task item: # lookup: test call for CC(C)(Cc1ccc2ccccc2c1)NC[C@@H](O)COc1cccc(Cl)c1C#N
Reply: inactive

Task item: Fill in: this test's call for COc1cc(NC(=O)c2ccc(-c3ccc(Cl)cc3)o2)cc(OC)c1 is ___
Reply: active

Task item: Which outcome did this test record for the compound Cc1ccccc1C(C(=O)NC1CCCCC1)N(C(=O)Cn1ccnc1C)c1cccc(F)c1 (stereo not drawn) ?
Reply: active
